# assay-name: self-splicing fitness, log relative to wild type (ln ratio); higher = more splicing; Tetrahymena group I intron in knt gene, E. coli kanamycin selection, DiMSum; sequences stand for … in CUCUCU…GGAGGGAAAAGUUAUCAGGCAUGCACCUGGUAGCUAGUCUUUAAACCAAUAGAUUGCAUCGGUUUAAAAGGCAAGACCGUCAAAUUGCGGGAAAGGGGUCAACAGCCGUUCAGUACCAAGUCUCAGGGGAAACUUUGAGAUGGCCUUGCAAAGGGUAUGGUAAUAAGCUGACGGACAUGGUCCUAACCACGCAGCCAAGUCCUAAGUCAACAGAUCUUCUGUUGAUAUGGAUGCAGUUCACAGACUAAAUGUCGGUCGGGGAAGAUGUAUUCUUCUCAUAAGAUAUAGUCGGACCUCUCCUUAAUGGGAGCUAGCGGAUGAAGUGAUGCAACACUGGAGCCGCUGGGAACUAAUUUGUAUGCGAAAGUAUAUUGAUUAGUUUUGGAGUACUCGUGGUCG;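 also: selection with 25 µg/mL kanamycin versus none on LB agar overnight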
# assay-conditions: 30 °C
Kind request: treat -1 as inclusive, so self-splicing fitness (ln) at -1 or higher is y, anything lower is n.

ACAAAGCAAUAUUACGACAG	n
AGCCAGCAAUAUUACGACCC	n
GGUUAGCAAUAUUACGAUUU	y
GGGAAGCAAUAUUACGUUUA	n
UUUAAGCAAUAUUACGAAUA	n

Prompt: Answer whether self-splicing fitness (ln) of `ACCUAGCAAUAUUACGAGAC` is greater than or equal to -1.
Completion: n

Prompt: Answer whether self-splicing fitness (ln) of `AUUAAGCAAUAUUACGCCCG` is greater than or equal to -1.
Completion: n

Prompt: Answer whether self-splicing fitness (ln) of `GCUAAGCAAUAUUACGUACU` is greater than or equal to -1.
Completion: y

###

# assay-name: self-splicing fitness, log relative to wild type (ln ratio); higher = more splicing; Tetrahymena group I intron in knt gene, E. coli kanamycin selection, DiMSum; sequences stand for … in CUCUCU…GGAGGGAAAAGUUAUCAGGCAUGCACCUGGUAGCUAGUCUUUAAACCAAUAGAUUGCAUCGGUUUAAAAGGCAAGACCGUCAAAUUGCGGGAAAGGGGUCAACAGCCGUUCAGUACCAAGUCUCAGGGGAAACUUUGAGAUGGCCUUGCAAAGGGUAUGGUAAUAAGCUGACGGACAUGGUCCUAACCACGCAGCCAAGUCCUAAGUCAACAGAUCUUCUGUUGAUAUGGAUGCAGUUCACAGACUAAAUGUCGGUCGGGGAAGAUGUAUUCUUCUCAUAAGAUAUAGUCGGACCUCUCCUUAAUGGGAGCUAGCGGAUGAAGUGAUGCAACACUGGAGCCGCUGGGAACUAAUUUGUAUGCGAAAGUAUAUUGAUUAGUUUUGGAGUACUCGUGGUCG
# assay-conditions: 30 °C
readout-kind: self-splicing fitness (ln)
Numbers only.

ACUCAGCAAUAUUACGACGU	-0.498
UGUGAGCAAUAUUACGGUAA	-2.56
UGUGAGCAAUAUUACGCGUU	-2.62

I would be grateful if you could provide self-splicing fitness (ln) for each of the following entries.
1. CGUGAGCAAUAUUACGCUUC
2. AUCCAGCAAUAUUACGCGCA
3. AUGCAGCAAUAUUACGACCU
4. UUAUAGCAAUAUUACGCGCA
5. ACUGAGCAAUAUUACGAAGG

Completion:
1. -3.91
2. -0.994
3. 0.132
4. -1.06
5. -2.53
